These data points were gathered from patent US20220064302A1.

Assign kon to each entry below.
- Target: T1, human PD-1 (soluble PD-1 protein, R&D Systems) (human, UniProt Q15116 25-170, limits assumed)
- T1 construct: the kinetics paragraphs say only 'PD-1' / 'antigen'; also called hPD-1; soluble PD-1 immunogen
- T1 sequence (Q15116 25-170 limits assumed): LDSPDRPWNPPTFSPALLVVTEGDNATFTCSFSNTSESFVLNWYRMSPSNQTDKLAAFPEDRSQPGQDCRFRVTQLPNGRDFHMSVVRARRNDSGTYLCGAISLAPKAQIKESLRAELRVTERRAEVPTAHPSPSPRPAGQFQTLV
- Protocol text: array SPR (Carterra), mAb captured, PD-1 as analyte
Numbers only, in M⁻¹ s⁻¹.

Record excerpt, results attached:
Suppose we examine the binder A1 (antibody, V domains shown, Tested as full-length mAb expressed in CHO cells; also called antibody A1; L1H1) VH: QVQLVESGGGVVQPGRSLRLSCAASGFTFSNYGMHWVRQAPGKGLEWVAVIWYDGSNKYYTDSVKGRFTISRDNSKNTLYLQMNSLRAEDTAVYYCAGGGNYYGDYWGQGTLVTVSS VL: DIQMTQSPSSLSASVGDRVTITCRASQGIRNDLGWYQQKPGKAPKRLIYVASSLQSGVPSRFSGSGSGTEFTLTISSLQPEDFATYYCLQHNSYPLTFGGGTKVEIKR ; what kon value has been reported?
7000

Give the measured kon of A8 (antibody, V domains shown, Tested as full-length mAb expressed in CHO cells; also called antibody A8; L8H8) VH: QVQLVESGGGVVQPGRSLRLSCAASGFTFSSYGMHWVRQAPGKGLEWVAVIWYDGSIKYYADSVKGRFTISRDNSKNTLYLQMNSLRAEDTAVYYCANDILTGSFDYWGQGTLVTVSS VL: EIVLTQSPATLSLSPGERATLSCRASQSVSSYLAWYQQKPGQAPRLLIYDASNRATGIPARFSGSGSGTDFTLTISSLEPEDFAVYYCQQRNTWPYTFGQGTKLEIKR .
84000

Could you now consider this next binder?
Consider the binder A4 (antibody, V domains shown, Tested as full-length mAb expressed in CHO cells; also called antibody A4; L4H4) VH: QVQLVQSGAEVKKPGASVKVSCKASGYTFATYGVSWVRQAPGQGLEWMGWISAYSDNINYAQNLQGRVTITTDTSTSTAYMELRSLRSDDTAVYYCARDGSHGDYYYGMDVWGQGTTVTVSS VL: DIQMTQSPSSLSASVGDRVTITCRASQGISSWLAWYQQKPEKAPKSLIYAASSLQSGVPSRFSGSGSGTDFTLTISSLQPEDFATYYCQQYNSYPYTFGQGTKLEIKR and give its measured kon.
12000
